System: HUVEC adhesion to fibronectin
method: HUVEC adhesion to fibronectin
Type: cell-based, human
condition_notes: dose–response; fibronectin 1 μg cm^−2; 37 °C, 1 h; MTT read-out; nonlinear regression (r^2 > 0.8); at least three independent experiments; read-out: IC50, inhibition of HUVEC adhesion to fibronectin
endpoint_label: IC50 (nM)
Record the value in nM, omitting the unit from your answer.

Query block: IC50 of N=C(N)NCCC[C@H](N)C(=O)NCC(=O)N[C@@H](CC(=O)O)C(=O)O [RGD, reference compound] on HUVEC adhesion to fibronectin?
Result block: 61.3

Source: paper PMC12795676
